target: GRPR (Homo sapiens); construct: host or cells: PC-3 cells (human prostate adenocarcinoma); assay: Competition binding assay against [111In]In-NeoB on PC-3 cells; conditions: IC50 of compound over IC50 of NeoB
recorded-endpoint: Ratio Compound/NeoB (IC50)
Simply state the number, no unit and no words.

Input line: Which value of Ratio Compound/NeoB (IC50) has been reported for CC(C)CC(CC(C)C)NC(=O)[C@H](Cc1c[nH]cn1)NC(=O)CNC(=O)[C@@H](NC(=O)[C@H](C)NC(=O)[C@H](Cc1c[nH]c2ccccc12)NC(=O)[C@H](CCC(N)=O)NC(=O)[C@@H](Cc1ccccc1)NC(=O)COCC(=O)Nc1ccc(CNC(=O)[C@H](CCCCNC(=O)OC2CCCC3C=NN=C(c4ccc(CNC(=O)CCCCC[N+]5=C(/C=C/C=C/C=C6N(C)c7ccc(S(=O)(=O)O)cc7C6(C)C)C(C)(C)c6cc(S(=O)(=O)[O-])ccc65)cc4)C3CC2)NC(=O)CN2CCN(CC(=O)O)CCN(CC(=O)O)CCN(CC(=O)O)CC2)cc1)C(C)C (stereo partly shown) in the records?
Output line: 24.6

====

Field: Ratio Compound/NeoB (IC50). Provide a value for each of the compounds that follow.
target: GRPR (Homo sapiens, UniProt P30550); construct: host or cells: PC-3 cells (human prostate adenocarcinoma); assay: Competition binding assay against [111In]In-NeoB on PC-3 cells; conditions: IC50 of compound over IC50 of NeoB
Sequence (P30550 whole entry): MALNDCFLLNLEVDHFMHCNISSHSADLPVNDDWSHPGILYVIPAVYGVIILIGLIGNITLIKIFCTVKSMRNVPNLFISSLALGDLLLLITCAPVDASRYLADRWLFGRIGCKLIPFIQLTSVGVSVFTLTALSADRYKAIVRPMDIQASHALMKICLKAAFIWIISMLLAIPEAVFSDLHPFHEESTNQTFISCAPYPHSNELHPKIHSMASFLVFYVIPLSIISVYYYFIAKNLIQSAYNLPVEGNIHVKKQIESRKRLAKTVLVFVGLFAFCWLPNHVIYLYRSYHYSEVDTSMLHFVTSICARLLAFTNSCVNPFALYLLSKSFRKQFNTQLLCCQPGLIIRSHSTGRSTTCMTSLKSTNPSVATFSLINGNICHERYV
Simply state the number, no unit and no words.

Input line: Form entry - test system: GRPR (Homo sapiens, UniProt P30550); read-out: Ratio Compound/NeoB (IC50); compound: CC(C)CC(CC(C)C)NC(=O)[C@H](Cc1c[nH]cn1)NC(=O)CNC(=O)[C@@H](NC(=O)[C@H](C)NC(=O)[C@H](Cc1c[nH]c2ccccc12)NC(=O)[C@H](CCC(N)=O)NC(=O)[C@@H](Cc1ccccc1)NC(=O)CCOCCOCCOCCOCCNC(=O)[C@H](CCCCNC(=O)OC1CCCC2C=NN=C(c3ccc(CNC(=O)CCCCC[N+]4=C(/C=C/C=C/C=C5N(C)c6ccc(S(=O)(=O)O)cc6C5(C)C)C(C)(C)c5cc(S(=O)(=O)[O-])ccc54)cc3)C2CC1)NC(=O)CN1CCN(CC(=O)O)CCN(CC(=O)O)CCN(CC(=O)O)CC1)C(C)C (stereo partly drawn)
Output line: 11.2

Input line: Input CC(C)CC(CC(C)C)NC(=O)[C@H](Cc1c[nH]cn1)NC(=O)CNC(=O)[C@@H](NC(=O)[C@H](C)NC(=O)[C@H](Cc1c[nH]c2ccccc12)NC(=O)[C@H](CCC(N)=O)NC(=O)[C@@H](Cc1ccccc1)NC(=O)COCC(=O)Nc1ccc(CNC(=O)OC2CCCC3C=NN=C(c4ccc(CNC(=O)CCCCC[N+]5=C(/C=C/C=C/C=C6N(C)c7ccc(S(=O)(=O)O)cc7C6(C)C)C(C)(C)c6cc(S(=O)(=O)[O-])ccc65)cc4)C3CC2)cc1)C(C)C (stereo partly drawn)
Output line: 12.9

Input line: Input CC(C)CC(CC(C)C)NC(=O)[C@H](Cc1c[nH]cn1)NC(=O)CNC(=O)[C@@H](NC(=O)[C@H](C)NC(=O)[C@H](Cc1c[nH]c2ccccc12)NC(=O)[C@H](CCC(N)=O)NC(=O)[C@@H](Cc1ccccc1)NC(=O)CCOCCOCCOCCOCCNC(=O)OC1CCCC2C=NN=C(c3ccc(CNC(=O)CCCCC[N+]4=C(/C=C/C=C/C=C5N(C)c6ccc(S(=O)(=O)O)cc6C5(C)C)C(C)(C)c5cc(S(=O)(=O)[O-])ccc54)cc3)C2CC1)C(C)C (stereo partly drawn)
Output line: 4.5
